# reported Kd; entries follow
Biological target: T1, rat His-Gαi3 (rat, UniProt P08753 1-354)
T1 construct: GDP-loaded in the buffers; Pull-down and FP methods name the rat protein; also called purified His-Gαi3; source: E. coli BL21(DE3), purified (HisPur Cobalt resin, buffer exchange on HiTrap Desalting)
T1 sequence (P08753 whole entry): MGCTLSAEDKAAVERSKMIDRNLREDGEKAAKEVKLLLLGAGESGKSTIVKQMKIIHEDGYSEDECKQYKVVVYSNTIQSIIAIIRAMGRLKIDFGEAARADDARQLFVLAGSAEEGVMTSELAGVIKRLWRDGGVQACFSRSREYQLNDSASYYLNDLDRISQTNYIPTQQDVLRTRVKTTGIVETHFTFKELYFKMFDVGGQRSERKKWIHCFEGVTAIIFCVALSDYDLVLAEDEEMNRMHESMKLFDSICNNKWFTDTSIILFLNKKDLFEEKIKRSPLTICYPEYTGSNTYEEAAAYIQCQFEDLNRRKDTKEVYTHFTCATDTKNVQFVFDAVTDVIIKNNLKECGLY
Assay: fluorescence polarisation; fluorescently-labeled GIV peptide 25 nM, rat His-Gαi3 titrated 0.125–10 µM, room temperature; 50 mM Tris-HCl pH 7.4, 100 mM NaCl, 0.4% NP-40, 10 mM MgCl2, 5 mM EDTA, 2 mM DTT, 30 µM GDP; one-site binding model
Details: both partners purified
No end group written: not given here. 5,6‑carboxyfluorescein = 5,6-carboxyfluorescein
measured.quantity: Kd

binder="{5,6‑carboxyfluorescein}-KTGSPGSEVVTLQQFLEESNKLTSVQ-NH2 (Made on MBHA resin, which would leave a C-terminal amide; source: synthetic peptide (Boc-SPPS, RP-HPLC purified)) [fluorescein-labeled GIV 1671–1696 peptide]" measured_quantity=Kd measured="~650 nM"
binder="{5,6‑carboxyfluorescein}-KTGSPGSEVVTLQQFLEES-NH2 (Made on MBHA resin, which would leave a C-terminal amide; source: synthetic peptide (Boc-SPPS, RP-HPLC purified)) [fluorescein-labeled GIV 1671–1689 peptide]" measured_quantity=Kd measured="~1000 nM"
binder="{5,6‑carboxyfluorescein}-KTGSPGSEVVTLQQFLEESNKLTSVQIKSSSQENL (Made on MBHA resin, which would leave a C-terminal amide; also called fluorescently-labeled GIV peptide; source: synthetic peptide (Boc-SPPS, RP-HPLC purified)) [fluorescein-labeled GIV 1671–1705 peptide]" measured_quantity=Kd measured="~500 nM"
